Molecular target: T1, CD22 on cynomolgus monkey peripheral blood B cells (cynomolgus monkey (Macaca fascicularis))
T1 construct: whole, on cells; also called cynomolgus monkey B cells
Assay: FACS, cynomolgus PBMC, CD20+ B cells, antibody 10 nM
Description: The monkey peripheral blood mononuclear cells were extracted from fresh cynomolgus monkey peripheral blood (purchased from Shanghai Medicilon Inc.) according to the instructions of Ficoll-Paque Plus (purchased from GE Healthcare, catalog number: 171440-02). After the cell suspension was centrifuged, the cells were resuspended in PBS containing 1% BSA, and then the cells were counted. […]
Entries and their Proportion of chimeric antibody positive cells to B cells (%)
reported_metric: Proportion of chimeric antibody positive cells to B cells (%)

{"binder": "F1.192.1 (antibody, human IgG1, kappa, V domains shown, human-murine chimeric IgG1 kappa) VH: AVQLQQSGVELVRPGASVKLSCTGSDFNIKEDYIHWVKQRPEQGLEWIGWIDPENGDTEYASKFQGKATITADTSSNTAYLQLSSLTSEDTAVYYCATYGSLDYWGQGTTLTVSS VL: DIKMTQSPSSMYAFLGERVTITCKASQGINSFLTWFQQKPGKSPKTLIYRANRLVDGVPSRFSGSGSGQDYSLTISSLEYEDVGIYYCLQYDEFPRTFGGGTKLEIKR", "recorded_measurement": "30%"}
{"binder": "F2.99.1 (antibody, human IgG1, lambda, V domains shown, human-murine chimeric IgG1 lambda; VL name legible) VH: QVTLKESGPGILQPSQTLSLTCSFSGFSLSTFPMGVGWIRQPSGKGLEWLAHIWWDDDEYYNPVLKSRLTISKDTSKKQVYLRIANVDTVDTATYYCTRANWDRWYFDVWGTGTTVTVSS VL: QLVLTQSSSASFSLGASAKLTCTLSRQHSAYTIEWYQQQPLKPPKYVMEVKKDGSHSTGDGIPDRFSGSSSGADRYLSISNIQPEDEAIYICGVGDTIKEHFVFGGGTKVTVLG", "recorded_measurement": "16%"}
{"binder": "F1.172.13 (antibody, human IgG1, kappa, V domains shown, human-murine chimeric IgG1 kappa) VH: QVTLKESGPGILQSSQTLSLTCSFSGFSLSTSGMGVSWIRQPSGKGLEWLAHIYWDDDKRYNPSLKSRLTISKDTSRNQVFLKITSVDTADTATYYCARAPPPNWDEYYFDYWGQGTTLTVSS VL: DIQMTQSPASLSASVGETVTITCRASGNIHNSLAWYQQKQGKSPQLLVHNAKTLADGVPSRFSGSGSGTQYSLKINSLQPEDFGSYYCQHFWSTPPFGGGTKLEIKR", "recorded_measurement": "31%"}
{"binder": "F1.7.6 (antibody, human IgG1, kappa, V domains shown, human-murine chimeric IgG1 kappa; VL name legible) VH: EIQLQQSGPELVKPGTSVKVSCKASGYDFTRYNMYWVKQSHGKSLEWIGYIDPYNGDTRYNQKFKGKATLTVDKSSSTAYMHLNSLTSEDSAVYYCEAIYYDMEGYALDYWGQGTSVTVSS VL: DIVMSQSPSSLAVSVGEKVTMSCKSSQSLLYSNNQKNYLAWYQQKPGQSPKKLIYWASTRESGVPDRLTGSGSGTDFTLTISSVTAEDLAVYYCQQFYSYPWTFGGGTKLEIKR", "recorded_measurement": "28%"}
{"binder": "F1.62.10 (antibody, human IgG1, kappa, V domains shown, human-murine chimeric IgG1 kappa) VH: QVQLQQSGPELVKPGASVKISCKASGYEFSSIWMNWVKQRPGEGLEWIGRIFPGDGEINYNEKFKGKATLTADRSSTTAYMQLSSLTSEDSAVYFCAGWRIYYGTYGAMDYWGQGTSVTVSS VL: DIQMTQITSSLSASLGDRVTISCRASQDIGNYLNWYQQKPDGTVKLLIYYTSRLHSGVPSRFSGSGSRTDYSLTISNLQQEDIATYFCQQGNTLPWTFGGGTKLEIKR", "recorded_measurement": "19%"}
